- Experimental target: Solute carrier family 15 member 1 (Homo sapiens, UniProt P46059)
- Sequence (P46059 whole entry): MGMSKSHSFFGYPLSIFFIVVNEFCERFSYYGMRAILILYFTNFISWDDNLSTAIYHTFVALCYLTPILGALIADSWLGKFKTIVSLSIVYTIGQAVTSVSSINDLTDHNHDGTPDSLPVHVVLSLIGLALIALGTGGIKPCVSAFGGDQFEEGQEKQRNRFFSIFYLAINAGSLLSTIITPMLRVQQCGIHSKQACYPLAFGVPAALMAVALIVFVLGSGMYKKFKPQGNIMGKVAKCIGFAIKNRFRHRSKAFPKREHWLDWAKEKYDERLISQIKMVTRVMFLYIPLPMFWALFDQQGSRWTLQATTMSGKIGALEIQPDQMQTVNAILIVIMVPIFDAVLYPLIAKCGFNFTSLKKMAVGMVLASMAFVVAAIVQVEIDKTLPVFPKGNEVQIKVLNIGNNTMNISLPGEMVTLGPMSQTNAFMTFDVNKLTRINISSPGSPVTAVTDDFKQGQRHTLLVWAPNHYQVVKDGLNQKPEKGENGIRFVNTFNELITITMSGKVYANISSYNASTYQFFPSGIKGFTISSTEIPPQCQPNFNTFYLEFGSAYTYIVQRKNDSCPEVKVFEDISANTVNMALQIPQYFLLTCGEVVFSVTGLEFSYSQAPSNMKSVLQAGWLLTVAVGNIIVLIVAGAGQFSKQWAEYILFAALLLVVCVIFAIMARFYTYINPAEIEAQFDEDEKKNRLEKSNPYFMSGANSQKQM
- Test protocol: Inhibitory concentration against [3H]glycylsarcosine uptake in HeLa cells expressing human Intestinal peptide transporter PepT1
Value kind: IC50

compound=CC(C)[C@H](N)C(=O)OCCOCn1cnc2c(=O)[nH]c(N)nc21 value_kind=IC50 measured_value="431 µM"
compound="COc1ccc(C[C@H](N)C(=O)OC[C@H]2OC(n3c(Br)nc4cc(Cl)c(Cl)cc43)[C@H](O)[C@@H]2O)cc1 (stereo partly specified)" value_kind=IC50 measured_value="300 µM"
compound="CCOc1ccc(C[C@H](N)C(=O)OC[C@H]2OC(n3c(Br)nc4cc(Cl)c(Cl)cc43)[C@H](O)[C@@H]2O)cc1 (stereo partly specified)" value_kind=IC50 measured_value="96 µM"
compound="CC(C)[C@@H](N)C(=O)OC[C@H]1OC(n2c(Br)nc3cc(Cl)c(Cl)cc32)[C@H](O)[C@@H]1O (stereo partly specified)" value_kind=IC50 measured_value="342 µM"
compound="N[C@@H](Cc1ccccc1)C(=O)OC[C@H]1OC(n2c(Br)nc3cc(Cl)c(Cl)cc32)[C@H](O)[C@@H]1O (stereo partly specified)" value_kind=IC50 measured_value="218 µM"
compound="N[C@H](Cc1ccccc1)C(=O)OC[C@H]1OC(n2c(Br)nc3cc(Cl)c(Cl)cc32)[C@H](O)[C@@H]1O (stereo partly specified)" value_kind=IC50 measured_value="282 µM"

Sourced from ChEMBL document CHEMBL1142674
